Provenance of the data: the OligoGym collection

# MEASURED_ON: Tau
# PROTOCOL_TEXT: rat primary cortical neurons, FLIPR, 25 uM ASO
Bases are written 5' to 3'; sugars and linkages follow in the same order, as letters with counts (s phosphorothioate, o phosphodiester; PS: all linkages phosphorothioate). The collection does not say whether C is 5-methylated. l = locked nucleic acid (LNA); d = 2'-deoxy (DNA)
ASSAY_ENDPOINT: calcium oscillation score

Task: Note calcium oscillation score for the sequence shown: ACTGATCATAATCCTA (sugars l3 d9 l4, PS)
Output: 81.1 % of control

Task: Using the record for TCTCAGCTCTTCCATAAGCA (sugars l3 d14 l3, PS) , state its measured calcium oscillation score.
Output: 82.6 % of control

Task: Determine its reported calcium oscillation score: GTCACCTTGCTCAGGT (sugars l3 d10 l3, PS)
Output: 7.67 % of control

Task: Consider the sequence ACTTTATTTCCAAATTCACTTTTAC (sugars lldlddddddddddddddddldlll, PS) and give its recorded calcium oscillation score.
Output: 35.4 % of control

Task: Query calcium oscillation score for CCGTGGTCTGTCTT (sugars l3 d8 l3, PS)
Output: 20.9 % of control

Task: // fetch calcium oscillation score given entry GACTTGGGTGGAGTACGGAC (sugars l3 d14 l3, PS)
Output: 0 % of control

Task: Give the value of calcium oscillation score reported for the following: TGCTTTTCCCAATTATT (sugars l3 d11 l3, PS)
Output: 69.5 % of control

Task: Quick one: give measured calcium oscillation score for GACGTGGGTGATATTGTCCA (sugars l3 d14 l3, PS)
Output: 0 % of control

Task: // Input: GAAGGTCAGCTTGTGG (sugars l3 d10 l3, PS) . Output its calcium oscillation score only.
Output: 11.4 % of control

Task: Provide measured calcium oscillation score value, entry: GAACTATTGATAAA (sugars l3 d8 l3, PS)
Output: 85.7 % of control

Task: Entry GTCCAGGGACCCAATCTTCG (sugars l3 d14 l3, PS) needs its calcium oscillation score filled in; supply it.
Output: 0 % of control
